Record form. Attribute: activation. Fill in for each entry.
Tested on: DAF-12 nuclear receptor (Haemonchus contortus)
Experiment: hcDAF-12 driven luciferase reporter activation – cell-based, luminescence, HEK293, lit1-tk-luc reporter, primary screen (AID 652067);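 also: 100% = response to 3 µM Δ7-dafachronic acid high control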
Conditions: HEK293 hcDAF-12 lit1-tk-luc reporter, at 6.8 µM, stronger effect = higher value, 0% DMSO, 100% Δ7-dafachronic acid
Among all 370,000 compounds or so, about 5,400 (1.5%) were called active. What follows is part of a selection rich in actives, with near analogues and random picks from the rest.

CCNc1nc(-c2cc3ccccc3o2)cs1 ... 6.62% (active)
O=S1(=O)c2ccc(Br)cc2OC[C@H](Cc2ccccc2)N1Cc1cn(Cc2ccccc2)nn1 ... -0.79% (inactive)
CCOC(=O)c1c(NC(=O)C(C)Sc2c[nH]c3ccccc23)sc2c1CCC2 (configuration not stated) ... 5.61% (active)

I'm hoping you can list activation for every molecule here, please.
1. CC(C)CC(=O)N/C(N)=N/c1nc2ccccc2s1
2. NC(=S)N/N=C/c1coc2cc(Cl)ccc2c1=O
3. CCn1c2ccccc2c2cc(NC(=O)CSc3nnc(-c4ccccc4)n3-c3ccc(C)cc3)ccc21

1: 8.5% (active); 2: 5.81% (active); 3: -1.53% (inactive)

I'm hoping you can list activation for every molecule here, please.
1. CC(NC(=O)COC(=O)c1ccc2ccccc2n1)c1ccccc1 (configuration not stated)
2. COc1cccc(OC)c1C(=O)N1CCN(Cc2cccnc2)CC1
3. N#CC(=C1SC=CS1)c1nc(-c2ccccc2)cs1

1: 2.13% (inactive); 2: -1.19% (inactive); 3: 5.72% (active)

I'm hoping you can list activation for every molecule here, please.
1. COC(=O)c1c(NC(=O)COC(=O)[C@@H](NS(=O)(=O)c2ccccc2)C(C)C)sc2c1CCC2
2. COCc1cc(N2CCN(C(=O)OC(C)(C)C)C[C@@H]2C)ccc1N1CCN(Cc2ccccc2)[C@H](C)C1
3. O=C(CSc1nnc(COc2ccccc2)n1-c1ccc(Cl)cc1)Nc1ccc2c(c1)OCO2
4. c1ccc(-c2csc(N3CCc4ccccc4C3)n2)cc1
5. CC(C)Oc1c(Br)cc(Br)cc1/C=N/NC(N)=S

1.86% (inactive)
-1.75% (inactive)
-0.19% (inactive)
1.49% (inactive)
-4.22% (inactive)

I'm hoping you can list activation for every molecule here, please.
1. O=C(N=C1SC2CS(=O)(=O)CC2N1c1cc(Cl)ccc1Cl)C1CC1 (configuration not stated)
2. O=C(NCCc1c[nH]c2ccccc12)OCc1cn(-c2c(F)cccc2F)nn1
3. O=S1(=O)c2c(cccc2N2CCCCC2)O[C@H](COCc2ccccc2)CN1C1CC1
4. CN(C)c1nc(N)nc(CSc2ccccn2)n1
5. O=C(Nc1ncccc1O)c1ccc(C(=O)c2ccccc2)cc1

1. -1% (inactive)
2. 3% (inactive)
3. -2.09% (inactive)
4. 0.13% (inactive)
5. 7.52% (active)

###

Tested on: DAF-12 nuclear receptor (Haemonchus contortus)
Assay: hcDAF-12 driven luciferase reporter activation – cell-based, luminescence, HEK293, lit1-tk-luc reporter, primary screen (AID 652067);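 also: 100% = response to 3 µM Δ7-dafachronic acid high control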
Details: HEK293 hcDAF-12 lit1-tk-luc reporter, at 6.8 µM, stronger effect = higher value, 0% DMSO, 100% Δ7-dafachronic acid
Hit rate of the full screen: of about 370,000 compounds, about 5,400 (1.5%) were called active. The full list was thinned out, with actives kept by preference.
value_kind: activation (%)
Numbers only, in %.

Cc1ccc2nc(NC(=O)C3CSC4(C)CCC(=O)N34)sc2c1 (stereo unspecified) ... -0.71

I'm hoping you can list activation for every molecule here, please.
1. CCC(CO)Nc1cccc2c1S(=O)(=O)N(Cc1cn(Cc3ccccc3C(F)(F)F)nn1)Cc1ccccc1O2 (stereo unspecified)
2. COCn1c(C(O)c2ccccc2)cc2ccccc21 (stereo unspecified)
3. CSc1ccc(C=Nn2c(-c3ccc(F)cc3)n[nH]c2=S)cc1
4. CCC(=O)c1cn(CCOc2ccccc2OC)c2ccccc12

1: -0.6; 2: 6.22; 3: -0.55; 4: -2.5
